molecular target: GST-MALT1325-760 (Homo sapiens); test: MALT1 paracaspase activity (fluorogenic cleavage) assay; settings: IC50 on recombinant MALT1 (fluorogenic MALT1 cleavage assay), FIG. 3a/b
Sequence (Q9UDY8 325-760 limits assumed): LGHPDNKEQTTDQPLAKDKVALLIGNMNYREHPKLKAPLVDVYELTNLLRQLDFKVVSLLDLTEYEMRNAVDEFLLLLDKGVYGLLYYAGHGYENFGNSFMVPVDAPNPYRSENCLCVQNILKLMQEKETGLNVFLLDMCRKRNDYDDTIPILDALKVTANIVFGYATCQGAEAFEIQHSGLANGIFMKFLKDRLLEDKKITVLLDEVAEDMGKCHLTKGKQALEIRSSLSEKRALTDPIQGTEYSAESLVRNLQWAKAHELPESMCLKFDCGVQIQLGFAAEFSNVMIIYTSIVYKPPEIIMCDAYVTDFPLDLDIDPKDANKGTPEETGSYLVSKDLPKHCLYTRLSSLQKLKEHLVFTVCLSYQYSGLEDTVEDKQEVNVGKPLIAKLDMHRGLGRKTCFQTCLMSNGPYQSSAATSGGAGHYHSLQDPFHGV
pIC50: −log10 of the molar value.
Measured pIC50 by item
measured endpoint: pIC50

molecule="CSc1ccc2c(c1)N(CCC1CCCCN1C)c1ccccc1S2 (single isomer, unassigned) [(S)-thioridazine]" readout_number=5.32
molecule="CSc1ccc2c(c1)N(CCC1CCCCN1C)c1ccccc1S2 (single isomer, unassigned) [(R)-thioridazine]" readout_number=5.30
